target-entity: ScLsb2
measurement-protocol: SPOT peptide array binding signal intensity (averaged, normalized) (arbitrary units (background-subtracted, floor 0; scale differs between SH3 domains)); higher = stronger binding of the SH3 domain to the peptide
MET means recorded SPOT peptide array binding signal intensity is 9 or above; NOT MET means it is below 9.

Query: Hi team, for AIPPPVPNRPGGTTN , is the recorded SPOT peptide array binding signal intensity at or above 9?
Reply: MET

Query: Hi team, for DDEDVPPQLPTRTKS , is the recorded SPOT peptide array binding signal intensity at or above 9?
Reply: NOT MET

Query: Hi team, for IFLRISINFPLNYPN , is the recorded SPOT peptide array binding signal intensity at or above 9?
Reply: MET

Query: Hi team, for WTQRRGPLVVYAEDN , is the recorded SPOT peptide array binding signal intensity at or above 9?
Reply: NOT MET

Query: Hi team, for NQARKPFLLPATELS , is the recorded SPOT peptide array binding signal intensity at or above 9?
Reply: NOT MET

Query: Hi team, for RRSKSLPITPKSIFN , is the recorded SPOT peptide array binding signal intensity at or above 9?
Reply: NOT MET

Query: Hi team, for DAPASKPSVPPRNYF , is the recorded SPOT peptide array binding signal intensity at or above 9?
Reply: MET

Query: Hi team, for KIRRSSLMIPNPQQF , is the recorded SPOT peptide array binding signal intensity at or above 9?
Reply: NOT MET

Query: Hi team, for NFFRKKLGIPRKLKR , is the recorded SPOT peptide array binding signal intensity at or above 9?
Reply: NOT MET

Query: Hi team, for PLQSKIPMLPSRRTM , is the recorded SPOT peptide array binding signal intensity at or above 9?
Reply: MET

Query: Hi team, for SPLGAPPPPPHKDHL , is the recorded SPOT peptide array binding signal intensity at or above 9?
Reply: NOT MET

Query: Hi team, for DHPKGPPPPPPPDEK , is the recorded SPOT peptide array binding signal intensity at or above 9?
Reply: NOT MET

Query: Hi team, for SHRLWLYAAPKRPKT , is the recorded SPOT peptide array binding signal intensity at or above 9?
Reply: NOT MET

Query: Hi team, for KNRKNLPTIPIRLSG , is the recorded SPOT peptide array binding signal intensity at or above 9?
Reply: MET

Provenance of the data: the supplement of paper PMC4466140
